Target: CYP1A2 (CYP enzymes mediating MT 6-hydroxylation) (Homo sapiens, UniProt P05177)
Construct: tissue XenoTech; host or cells: human liver microsomes
Sequence (P05177 whole entry): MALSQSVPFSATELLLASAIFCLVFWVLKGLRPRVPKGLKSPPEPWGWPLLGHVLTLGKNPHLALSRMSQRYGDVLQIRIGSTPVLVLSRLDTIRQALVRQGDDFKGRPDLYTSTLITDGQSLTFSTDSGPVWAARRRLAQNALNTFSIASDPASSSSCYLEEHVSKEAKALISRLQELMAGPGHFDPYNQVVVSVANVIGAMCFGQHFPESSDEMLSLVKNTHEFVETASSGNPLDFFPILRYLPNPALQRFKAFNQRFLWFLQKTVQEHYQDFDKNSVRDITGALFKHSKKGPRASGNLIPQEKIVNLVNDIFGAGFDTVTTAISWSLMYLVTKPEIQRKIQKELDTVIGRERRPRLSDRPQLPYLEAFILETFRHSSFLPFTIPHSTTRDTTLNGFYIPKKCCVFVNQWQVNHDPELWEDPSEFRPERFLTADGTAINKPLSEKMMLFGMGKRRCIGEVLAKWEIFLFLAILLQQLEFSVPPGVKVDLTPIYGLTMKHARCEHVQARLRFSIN
Assay: Irreversible (mechanism-based) inhibition of CBD on MT 6-hydroxylation, human liver microsomes
Format: in vitro ADME
Settings: human, liver microsomes, probe melatonin (MT) 200 µM, 6-hydroxylation to 6-HMT
reported-endpoint: pKi
Hey, just a heads up that pKi is the negative log base 10 of the concentration in molar.

Given the compound C=C(C)[C@@H]1CCC(C)=C[C@H]1c1c(O)cc(CCCCC)cc1O [CBD, Cannabidiol] , what is its reported pKi?
7.73

###

Target: CYP1A2 (CYP enzymes mediating MT 6-hydroxylation) (Homo sapiens, UniProt P05177)
Construct: tissue XenoTech; host or cells: human liver microsomes
Test: Irreversible (mechanism-based) inhibition of CBD on MT 6-hydroxylation, human liver microsomes
Format: in vitro ADME
Settings: probe melatonin (MT) 200 µM, 6-hydroxylation to 6-HMT; human liver microsomes
reported-endpoint: kinact (s⁻¹)
Write the answer as a number in s⁻¹, unit excluded.

Given the compound C=C(C)[C@@H]1CCC(C)=C[C@H]1c1c(O)cc(CCCCC)cc1O , what is its reported kinact?
0.00105

###

Experiment: Pharmacokinetics of MT, 6-HMT and CBD in SD rats (i.v. and oral)
Details: male, Sprague-Dawley, rat, in vivo, po, 5 mg/kg, AUC(0–1h), rats, p.o., MT + Vehicle 5 mg/kg
reported-endpoint: AUC(0-t) (ng·h/mL)
Write the answer as a number in ng·h/mL, unit excluded.

Given the molecule COc1ccc2[nH]cc(CCNC(C)=O)c2c1 , what is its reported AUC(0-t)?
241

###

Test: Pharmacokinetics of MT, 6-HMT and CBD in SD rats (i.v. and oral)
Conditions: male, Sprague-Dawley, rat, in vivo, po, 20 mg/kg, t1/2, rats, p.o., MT + CBD (5 + 20) mg/kg
reported-endpoint: half-life (h)
Write the answer as a number in h, unit excluded.

Given the compound C=C(C)[C@@H]1CCC(C)=C[C@H]1c1c(O)cc(CCCCC)cc1O [CBD, Cannabidiol] , what is its reported half-life?
4.14

###

Assay: Pharmacokinetics of MT, 6-HMT and CBD in beagles after oral administration
Settings: male, beagle, dog, in vivo, po, 3 mg/kg, MRT(0–t), beagles, p.o., MT + CBD (3 + 3) mg/kg
reported-endpoint: MRT last

Given the molecule COc1ccc2[nH]cc(CCNC(C)=O)c2c1 , what is its reported MRT last?
1.66 h

###

Experiment: Pharmacokinetics of MT, 6-HMT and CBD in SD rats (i.v. and oral)
Settings: male, Sprague-Dawley, rat, in vivo, po, 5 mg/kg, Tmax, rats, p.o., MT + Vehicle 5 mg/kg
reported-endpoint: Tmax (min)
Write the answer as a number in min, unit excluded.

Given the compound COc1ccc2[nH]cc(CCNC(C)=O)c2c1 , what is its reported Tmax?
10.2

###

Assay: Pharmacokinetics of MT, 6-HMT and CBD in SD rats (i.v. and oral)
Conditions: male, Sprague-Dawley, rat, in vivo, po, 5 mg/kg
reported-endpoint: bioavailability (%)
Write the answer as a number in %, unit excluded.

Given the compound COc1ccc2[nH]cc(CCNC(C)=O)c2c1 [MT, Melatonin] , what is its reported bioavailability?
20.5
